test: gradient 5% acetonitrile 3 min, to 50% in 2 min, to 85% in 15 min, held 3 min, 100 µL/min; conditions: column: Zorbax Extend-C18 2.1 x 50 mm; eluents: water / acetonitrile, 0.1% formic acid
reported metric: RP-LC retention time (s)

>>> numeric_result("COc1ccc(OC)c(CNC(=O)c2ccc(-c3cncnc3)nc2)c1")
700
>>> numeric_result("NC(=O)C1CCN(S(=O)(=O)c2ccc(N3C(=O)CCS3(=O)=O)cc2)CC1")
622
>>> numeric_result("COCCNc1c(C(=O)OC)c(=O)[nH]c2ccc(F)cc12")
622
>>> numeric_result("CC(C)CCNC(=O)N1CCN(Cc2nc3cc(C(=O)N(C)C)ccc3o2)CC1")
614
>>> numeric_result("Cc1csc(CN2CCN(C(=O)CC(c3ccccc3)c3ccccc3)CC2)n1")
665
>>> numeric_result("Cc1ccc(NC(=O)Nc2ccc3nnc(C)n3c2)cc1C")
719

----------
assay: gradient 5% acetonitrile 3 min, to 50% in 2 min, to 85% in 15 min, held 3 min, 100 µL/min; conditions: column: Zorbax Extend-C18 2.1 x 50 mm; eluents: water / acetonitrile, 0.1% formic acid
reported metric: RP-LC retention time (s)

A. CCCN1CCN(C(=O)C2CCCN(c3nnc4ccc(C(F)(F)F)cn34)C2)CC1 (stereo not given)
B. O=C(NC1CCN(c2cc(-c3cccs3)[nH]n2)C1)c1cc(F)ccc1Cl (stereo not given)
C. Cc1ccccc1Nc1c(-c2cccc(Br)c2)nc2ccc(Br)cn12
IN: Descending sort on RP-LC retention time required. Order the labels as requested and list them.
OUT: C, B, A

1. Cc1nnc(NC(=O)CN2CCN(c3ccccc3F)C2=O)s1
2. O=C(CN1C(=O)CCc2cc(Br)ccc21)Nc1ccc2c(c1)OCCO2
IN: Larger number for RP-LC retention time: 1 , or 2 ? In your reply, give the label of the chosen option.
OUT: 2

I. C=Cc1ccc(Cn2cc(S(=O)(=O)N3CCCC3)ccc2=O)cc1
II. COC(=O)CNC(=O)Nc1cc(F)c2nc(N3CCOCC3)ccc2c1
IN: Between I and II , which one has the lower reported RP-LC retention time value? Label of pick, please.
OUT: II
(II: 620 s, I: 886 s)

P. Cc1cc2nc(C(=O)OC(C)C)c(N3CCN(c4ccccn4)CC3)nc2cc1C
Q. CCNC(=O)C1(CCO)CCN(c2ncccn2)C1 (stereo not given)
IN: Hello, I am sorting some records. Could you say if P or Q has the smaller RP-LC retention time value? # respond with the chosen item's label
OUT: Q

A. O=C(c1cscn1)N1CCc2nn(CC3CC3)c(=O)n2CC1
B. CCN(CC)S(=O)(=O)c1ccc(Cl)c(-c2nnc(-c3ccccc3)o2)c1
IN: Would you kindly point out which of A and B has the smaller RP-LC retention time figure? # answer = label of selected item
OUT: A
(A: 610 s, B: 1120 s)

I. COc1cc([C@H]2Oc3cc([C@H]4Oc5cc(O)cc(O)c5C(=O)[C@@H]4O)ccc3O[C@@H]2CO)ccc1O
II. O=c1ccc(-c2cccc(Cl)c2)nn1CCc1nc(-c2ccc3c(c2)OCO3)no1
IN: Please indicate which item has the smaller measured RP-LC retention time: I versus II When you have decided, please share the label of that item.
OUT: I
(I: 685 s, II: 999 s)

P. Cc1c(Cl)ccc2c(=O)c3c([nH]c12)CCN(CC(=O)Nc1ccc(Cl)c(F)c1)C3
Q. COCCn1c(SCc2ccccc2Cl)nc2cc(C(=O)NC(C)C)ccc2c1=O
IN: Sorting by RP-LC retention time in descending order, would P or Q appear first? // respond with label for picked entry
OUT: Q
